# credit: paper PMC4506092

- Test system: P. falciparum D10attB
- Assay Details: P. falciparum SYBR Green proliferation assay, D10attB line
- Assay type: cell-based, Plasmodium falciparum
- Details: Plasmodium falciparum; read-out: P. falciparum EC50, D10attB
pEC50: −log10 of the molar value.
# maps each entry to its pEC50

Take a look at these entries with their results.
• CCc1c(C)c(C#N)c2nc3ccccc3n2c1O = < 4.90
• O=C(Cn1ccnc1[N+](=O)[O-])NCc1ccccc1 = < 4.90

--- query ---
Noted for CO\C=C(C(=O)OC)/C(C)=C\C=C\c1ccccc1 : its pEC50 reads 6.34

====

- Tested on: T. cruzi epimastigote respiration (GNF7686-resistant, DR)
- Assay Details: T. cruzi epimastigote respiration (oxygen consumption, MitoXpress-Xtra), GNF7686-resistant
- Format: cell-based, Trypanosoma cruzi
- Details: Trypanosoma cruzi; intact epimastigotes
Recorded pIC50 by entry
For clarity, pIC50 is expressed as the negative log10 of concentration in mol/L.

Reported pIC50 for CCc1c(C)c(C#N)c2nc3ccccc3n2c1O was 5.28

Quick note, pIC50 for CCCCCC[C@H]1C(=O)O[C@H](C)[C@H](NC(=O)c2cccc(NC=O)c2O)C(=O)O[C@@H](C)[C@@H]1OC(=O)CC(C)C [Antimycin A] landed at 6.57

====

- Tested on: P. falciparum yDHODH-D10attB
- Assay Details: P. falciparum SYBR Green proliferation assay, yDHODH-D10attB line
- Type: cell-based, Plasmodium falciparum
- Details: Plasmodium falciparum, read-out: P. falciparum EC50, yDHODH-D10attB
Measurement Type: EC50

Entry under test: CCCCCC[C@H]1C(=O)O[C@H](C)[C@H](NC(=O)c2cccc(NC=O)c2O)C(=O)O[C@@H](C)[C@@H]1OC(=O)CC(C)C [Antimycin A] . Its EC50 was > 12.5 µM

====

- Test system: L. donovani promastigotes
- Assay Details: Leishmania donovani promastigote proliferation assay
- Assay type: cell-based
- Details: Leishmania donovani
Measurement Type: pEC50
# pEC50: negative log10 of molar concentration; output just the value

Example entries begin here.
• CO\C=C(C(=O)OC)/C(C)=C\C=C\c1ccccc1 [Strobilurin] = 5.37
• CCc1c(C)c(C#N)c2nc3ccccc3n2c1O [GNF7686] = 6.34

What the record says about CCCCCC[C@H]1C(=O)O[C@H](C)[C@H](NC(=O)c2cccc(NC=O)c2O)C(=O)O[C@@H](C)[C@@H]1OC(=O)CC(C)C [Antimycin A] : pEC50 is 8.00

====

- Test system: rat skeletal muscle mitochondria respiration
- Assay Details: Respiration of isolated rat skeletal muscle mitochondria (oxygen consumption)
- Type: biochemical
- Details: mitochondria from rat skeletal muscle; read-out: Rat mitochondrial respiration IC50
Measurement Type: IC50 (nM)
Field format: number, assumed nM, no unit text.

Documented IC50 of CCCCCC[C@H]1C(=O)O[C@H](C)[C@H](NC(=O)c2cccc(NC=O)c2O)C(=O)O[C@@H](C)[C@@H]1OC(=O)CC(C)C [Antimycin A] : 810

====

- System: P. falciparum D10attB
- Assay Details: P. falciparum SYBR Green proliferation assay, D10attB line
- Type: cell-based, Plasmodium falciparum
- Details: Plasmodium falciparum, read-out: P. falciparum EC50, D10attB
Measurement Type: pEC50
Scale: negative log10 of molar concentration, which is what pEC50 denotes.

Form: molecule = CCCCCC[C@H]1C(=O)O[C@H](C)[C@H](NC(=O)c2cccc(NC=O)c2O)C(=O)O[C@@H](C)[C@@H]1OC(=O)CC(C)C [Antimycin A] ; pEC50 = 6.15

====

- Assay Details: Mammalian cell cytotoxicity assay (CellTiter-Glo)
- Format: cell-based, mouse
- Details: mouse; NIH/3T3, 96 hours; read-out: CC50, 3T3 cell line
Measurement Type: CC50

The measured CC50 associated with CCc1c(C)c(C#N)c2nc3ccccc3n2c1O [GNF7686] reads > 20 µM

====

- Assay Details: in vivo
- Details: mouse, po
Measurement Type: bioavailability (%)
Note: unit % is implicit; provide only the numeric part.

Looking up CCc1c(C)c(C#N)c2nc3ccccc3n2c1O [GNF7686] , I found its bioavailability recorded as 6
